molecular target: Indoleamine 2,3-dioxygenase 1 (Homo sapiens, UniProt P14902); assay: Inhibition of N-terminal hexa-histidine tagged human IDO1 (12 to 403 residues) expressed in Escherichia coli Transetta (DE3) using L-tryptophan as substrate at 10 uM preincubated with enzyme for 10 mins followed by substrate addition and measured after 30 to 60 mins by microplate reader analysis relative to control; settings: time 40-70 min
Sequence (P14902 whole entry, looked up, the tested form may be a part): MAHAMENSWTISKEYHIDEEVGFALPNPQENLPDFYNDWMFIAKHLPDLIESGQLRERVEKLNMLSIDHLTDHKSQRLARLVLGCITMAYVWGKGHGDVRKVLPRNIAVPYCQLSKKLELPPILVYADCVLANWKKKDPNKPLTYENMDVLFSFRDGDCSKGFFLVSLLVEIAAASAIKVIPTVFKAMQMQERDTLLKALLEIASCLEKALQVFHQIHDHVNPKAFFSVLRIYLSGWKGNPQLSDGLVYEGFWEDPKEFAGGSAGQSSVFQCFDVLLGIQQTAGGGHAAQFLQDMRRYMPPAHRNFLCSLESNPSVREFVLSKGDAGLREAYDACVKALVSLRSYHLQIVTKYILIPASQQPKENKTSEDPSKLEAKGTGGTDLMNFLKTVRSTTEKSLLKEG
# inhibition >= 40% gives rule met, anything below gives rule not met

smiles.str: O=[N+]([O-])c1ccc(CNc2cc(Br)cc3[nH]ncc23)cc1
category.label: rule met

**Q:** Decide: is the reported value of inhibition for `O=[N+]([O-])c1cccc(CNc2cc(Br)cc3[nH]ncc23)c1` equal to or greater than 40%?
**A:** rule met

**Q:** `CS(=O)(=O)c1ccc(CNc2cc(C(F)(F)F)cc3[nH]ncc23)c([N+](=O)O)c1` , same question.
**A:** rule met

**Q:** `O=[N+]([O-])c1ccccc1CNc1cc(C(F)(F)F)cc2[nH]ncc12` , same question.
**A:** rule not met

**Q:** `O=C1NC(=O)c2c(NCc3ccccc3[N+](=O)[O-])cccc21` , same question.
**A:** rule not met

**Q:** `FC(F)(F)c1cc(NCc2cccc(Br)c2)c2cn[nH]c2c1` , same question.
**A:** rule not met

**Q:** `Cc1ccc(CNc2cc(C(F)(F)F)cc3[nH]ncc23)c([N+](=O)O)c1` , same question.
**A:** rule not met

**Q:** `FC(F)(F)c1cc(NC[C@H]2CCCN2)c2cn[nH]c2c1` , same question.
**A:** rule not met

**Q:** `COc1cc(CNc2cc(Br)cc3[nH]ncc23)c([N+](=O)[O-])cc1OC` , same question.
**A:** rule met

**Q:** `Oc1ccc(CNc2cc(C(F)(F)F)cc3[nH]ncc23)cc1` , same question.
**A:** rule not met

---

target: Tryptophan 2,3-dioxygenase (Homo sapiens, UniProt P48775); assay: Inhibition of N-terminal hexa-histidine tagged human TDO (19 to 388 residues) expressed in Escherichia coli Transetta (DE3) using L-tryptophan as substrate at 10 uM preincubated with enzyme for 10 mins followed by substrate addition and measured after 30 to 60 mins by microplate reader analysis relative to control; details: time 40-70 min
Sequence (P48775 whole entry, looked up, the tested form may be a part): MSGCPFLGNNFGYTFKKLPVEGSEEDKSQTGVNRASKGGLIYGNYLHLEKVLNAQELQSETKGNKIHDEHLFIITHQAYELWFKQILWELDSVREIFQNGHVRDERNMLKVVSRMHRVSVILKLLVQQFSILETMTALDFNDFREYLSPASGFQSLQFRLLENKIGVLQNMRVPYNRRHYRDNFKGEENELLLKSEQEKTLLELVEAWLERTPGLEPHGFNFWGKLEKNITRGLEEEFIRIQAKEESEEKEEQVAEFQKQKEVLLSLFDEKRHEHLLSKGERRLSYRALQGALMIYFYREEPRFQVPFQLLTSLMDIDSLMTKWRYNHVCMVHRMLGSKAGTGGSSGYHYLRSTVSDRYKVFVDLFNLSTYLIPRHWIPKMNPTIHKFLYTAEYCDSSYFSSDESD
Using inhibition as the sorting value, the categories are L: < 40%; M: ≥ 40% and < 80%; H: ≥ 80%

Example entries begin here.
smiles.str: O=[N+]([O-])c1ccc(O)cc1CNc1cc(Br)cc2[nH]ncc12
category.label: H
//
smiles.str: COC(=O)c1cc(NCc2ccccc2[N+](=O)[O-])c2cn[nH]c2c1
category.label: L
//
smiles.str: CC(C)n1ncc2c(NCc3ccccc3[N+](=O)[O-])cc(C(F)(F)F)cc21
category.label: L

**Q:** For the record `FC(F)(F)c1cc(NCC2CNC2)c2cn[nH]c2c1` , report the class its inhibition corresponds to.
**A:** L

**Q:** `CS(=O)(=O)c1ccc(CNc2cc(C(F)(F)F)cc3[nH]ncc23)c([N+](=O)O)c1` , same question.
**A:** H

---

biological target: Tryptophan 2,3-dioxygenase (Homo sapiens); experiment: Inhibition of N-terminal hexa-histidine tagged human TDO (19 to 388 residues) expressed in Escherichia coli Transetta (DE3) using L-tryptophan as substrate at 10 uM preincubated with enzyme for 10 mins followed by substrate addition and measured after 30 to 60 mins by microplate reader analysis relative to control; settings: time 40-70 min
reported.property: inhibition (%)
Provide the reading as a plain figure in %.

**Q:** Can you look up the measured inhibition of `Nc1cccc(CNc2cc(C(F)(F)F)cc3[nH]ncc23)c1` for me?
**A:** 68

**Q:** `O=[N+]([O-])c1cccc(CNc2cc(Br)cc3[nH]ncc23)c1` , same question.
**A:** 91

**Q:** `FC(F)(F)c1cc(NCc2cccc(Br)c2)c2cn[nH]c2c1` , same question.
**A:** 67

**Q:** `O=C(O)c1cccc(CNc2cc(C(F)(F)F)cc3[nH]ncc23)c1` , same question.
**A:** 81

The measured values listed here are drawn from ChEMBL document CHEMBL5108015.
